Quick reference: pEC50 of the listed items.
target: glucagon receptor (UniProt P47871 26-477, limits assumed); assay: cell-based or functional assay
Sequence (P47871 26-477 limits assumed): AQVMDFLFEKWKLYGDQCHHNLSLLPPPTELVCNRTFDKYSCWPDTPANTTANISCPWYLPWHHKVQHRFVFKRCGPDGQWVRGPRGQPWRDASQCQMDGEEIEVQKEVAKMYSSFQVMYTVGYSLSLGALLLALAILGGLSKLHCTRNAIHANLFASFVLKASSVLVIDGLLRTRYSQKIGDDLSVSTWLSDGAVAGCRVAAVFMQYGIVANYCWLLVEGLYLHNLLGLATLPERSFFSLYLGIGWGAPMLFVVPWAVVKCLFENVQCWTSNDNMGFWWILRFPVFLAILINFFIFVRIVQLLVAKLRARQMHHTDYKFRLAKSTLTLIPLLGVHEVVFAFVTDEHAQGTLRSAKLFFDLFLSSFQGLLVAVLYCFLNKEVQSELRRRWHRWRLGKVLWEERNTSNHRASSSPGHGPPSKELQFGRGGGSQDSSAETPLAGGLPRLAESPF
Just so you know, pEC50 here is -log10 of the concentration in molar units; reply with that number alone.

These recorded examples may help you get a feel for the data.
Binder	Recorded Endpoint	Numeric Result
HXQGTFTSDKSKYLDERRAKDFVQWLMNT (d-Ser at 2; Lys 10 acylated with C14; C-terminal amide) [Peptide dS2K10(C14)E16K20-Gluc Amide]	pEC50	9.81
HXQGTFTSDYSKYLDERRAKDFVQWLMNTK (d-Ser at 2; Lys 30 acylated with C16; C-terminal amide) [Peptide dS2E16K20K30-C16 Gluc Amide]	pEC50	8.31
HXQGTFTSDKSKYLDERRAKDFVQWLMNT (d-Ser at 2; Lys 10 acylated with C16; C-terminal amide) [Peptide dS2K10(C16)E16K20-Gluc Amide]	pEC50	10.12

Let us move to another entry and its pEC50.
Q: Which measured pEC50 value corresponds to HXQGTFTSDYSKYLDERRAKDFVQWLMNTK (d-Ser at 2; Lys 30 acylated with C14; C-terminal amide) [Peptide dS2E16K20K30-C14 Gluc Amide] ?
A: 8.45
